Source of measurements: PubChem BioAssay AID623972

Test: DNA binding via ethidium displacement, late-stage follow-up, artefact control for HCV NS3 helicase inhibitor project, biochemical, fluorescence, ethidium bromide (AID 623972)
The source made the active and inactive calls. No rule for the calls is given here.
readout type: IC50

Data request, read-out IC50, for CN1CCN(Cc2cc(CN3CCN(C)CC3)c(O)c(=O)c(CN3CCN(C)CC3)c2)CC1
31 µM (active)

I'm hoping you can list IC50 for every compound here, please.
1. Cc1ccc2nc(-c3ccc(N)cc3)sc2c1S(=O)(=O)O
2. Cc1ccc2nc(-c3ccc4nc(-c5ccc(N)cc5)sc4c3)sc2c1S(=O)(=O)O
3. Cc1ccc2nc(-c3ccc4nc(-c5ccc6nc(-c7ccc(N)cc7)sc6c5)sc4c3)sc2c1S(=O)(=O)O
4. CCN(CC)c1ccc(-c2nc3ccc(C)c(S(=O)(=O)O)c3s2)cc1

["> 100 µM (inactive)", "> 100 µM (inactive)", "55 µM (active)", "> 100 µM (inactive)"]

Dear colleague, could you please provide IC50 for the compounds listed below?
1. Cc1ccc2nc(-c3ccc4nc(-c5ccc6nc(-c7ccc(N)cc7)sc6c5)sc4c3)sc2c1S(=O)(=O)O (tested in a mixture with another compound)
2. COc1cccc2c(=O)c3cc(Cl)cc(C(=O)Nc4cc(Cl)ccn4)c3[nH]c12
3. Cc1cc2sc(-c3ccc(N)cc3)nc2cc1S(=O)(=O)O

73 µM (active)
> 100 µM (inactive)
> 100 µM (inactive)
